Biological target: T1, murine IL-11 (mouse, UniProt P47873 22-199)
T1 construct: bought from Invigate; also called mIL-11; mIL11
T1 sequence: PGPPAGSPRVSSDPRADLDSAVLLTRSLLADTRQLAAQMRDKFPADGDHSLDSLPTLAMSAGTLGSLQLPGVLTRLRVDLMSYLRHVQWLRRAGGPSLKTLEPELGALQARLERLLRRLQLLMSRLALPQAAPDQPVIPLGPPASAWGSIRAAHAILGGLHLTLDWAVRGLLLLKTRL
Experiment: SPR, antibody captured, IL-11 as analyte
measuredEndpoint: Kd (nM)
A number alone suffices; assume nM.

Example results:
TPP-26294 (antibody, V domains shown, constant regions not restated) VH: EVQLLESGGGLVQPGGSLRLSCAASGFTFSSYGMHWVRQAPGKGLEWVSVISYDGSYKYYADSVKGRFTISRDNSKNTLYLQMNSLRAEDTAVYYCAAGVPDYWGQGTLVTVSS VL: QSVLTQPPSASGTPGQRVTISCTGSSSNIGAAYDVHWYQQLPGTAPKLLIYSNNERPSGVPDRFSGSKSGTSASLAISGLRSEDEADYYCAAWDDSLNGPVFGGGTKLTVL = 0.82
TPP-26290 (antibody, V domains shown, constant regions not restated) VH: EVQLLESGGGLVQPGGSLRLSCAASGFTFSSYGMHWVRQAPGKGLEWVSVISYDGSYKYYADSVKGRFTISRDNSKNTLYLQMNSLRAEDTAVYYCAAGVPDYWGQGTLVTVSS VL: QSVLTQPPSASGTPGQRVTISCTGSSSNIGAGMDVHWYQQLPGTAPKLLIYSNNERPSGVPDRFSGSKSGTSASLAISGLRSEDEADYYCAAWDDSLNGPVFGGGTKLTVL = 0.54
TPP-26302 (antibody, V domains shown, constant regions not restated) VH: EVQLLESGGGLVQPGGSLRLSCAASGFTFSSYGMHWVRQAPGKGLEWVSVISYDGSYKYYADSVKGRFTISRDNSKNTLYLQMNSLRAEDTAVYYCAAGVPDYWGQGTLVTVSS VL: QSVLTQPPSASGTPGQRVTISCTGSSSNIGAGYDVHWYQQLPGTAPKLLIYSNNERPSGVPDRFSGSKSGTSASLAISGLRSEDEADYYCSAWDDSLNGPVFGGGTKLTVL = 0.7

The record that follows has no Kd shown yet.
**Q:** Annotate the binder TPP-26314 (antibody, V domains shown, constant regions not restated) VH: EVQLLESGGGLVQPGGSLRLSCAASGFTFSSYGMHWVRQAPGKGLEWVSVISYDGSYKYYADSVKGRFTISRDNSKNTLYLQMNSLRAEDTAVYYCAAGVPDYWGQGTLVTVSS VL: QSVLTQPPSASGTPGQRVTISCTGSSSNIGAGYDVHWYQQLPGTAPKLLIYSNNERPSGVPDRFSGSKSGTSASLAISGLRSEDEADYYCAAWDWSLNGPVFGGGTKLTVL with its measured Kd.
**A:** 0.56
